molecular target: WNK3 (human) (UniProt Q9BYP7); assay: radiometric filter-binding kinase assay, Kinase HotSpot; conditions: compound 0.5 µM; ATP 10 µM
Sequence (Q9BYP7 whole entry, looked up): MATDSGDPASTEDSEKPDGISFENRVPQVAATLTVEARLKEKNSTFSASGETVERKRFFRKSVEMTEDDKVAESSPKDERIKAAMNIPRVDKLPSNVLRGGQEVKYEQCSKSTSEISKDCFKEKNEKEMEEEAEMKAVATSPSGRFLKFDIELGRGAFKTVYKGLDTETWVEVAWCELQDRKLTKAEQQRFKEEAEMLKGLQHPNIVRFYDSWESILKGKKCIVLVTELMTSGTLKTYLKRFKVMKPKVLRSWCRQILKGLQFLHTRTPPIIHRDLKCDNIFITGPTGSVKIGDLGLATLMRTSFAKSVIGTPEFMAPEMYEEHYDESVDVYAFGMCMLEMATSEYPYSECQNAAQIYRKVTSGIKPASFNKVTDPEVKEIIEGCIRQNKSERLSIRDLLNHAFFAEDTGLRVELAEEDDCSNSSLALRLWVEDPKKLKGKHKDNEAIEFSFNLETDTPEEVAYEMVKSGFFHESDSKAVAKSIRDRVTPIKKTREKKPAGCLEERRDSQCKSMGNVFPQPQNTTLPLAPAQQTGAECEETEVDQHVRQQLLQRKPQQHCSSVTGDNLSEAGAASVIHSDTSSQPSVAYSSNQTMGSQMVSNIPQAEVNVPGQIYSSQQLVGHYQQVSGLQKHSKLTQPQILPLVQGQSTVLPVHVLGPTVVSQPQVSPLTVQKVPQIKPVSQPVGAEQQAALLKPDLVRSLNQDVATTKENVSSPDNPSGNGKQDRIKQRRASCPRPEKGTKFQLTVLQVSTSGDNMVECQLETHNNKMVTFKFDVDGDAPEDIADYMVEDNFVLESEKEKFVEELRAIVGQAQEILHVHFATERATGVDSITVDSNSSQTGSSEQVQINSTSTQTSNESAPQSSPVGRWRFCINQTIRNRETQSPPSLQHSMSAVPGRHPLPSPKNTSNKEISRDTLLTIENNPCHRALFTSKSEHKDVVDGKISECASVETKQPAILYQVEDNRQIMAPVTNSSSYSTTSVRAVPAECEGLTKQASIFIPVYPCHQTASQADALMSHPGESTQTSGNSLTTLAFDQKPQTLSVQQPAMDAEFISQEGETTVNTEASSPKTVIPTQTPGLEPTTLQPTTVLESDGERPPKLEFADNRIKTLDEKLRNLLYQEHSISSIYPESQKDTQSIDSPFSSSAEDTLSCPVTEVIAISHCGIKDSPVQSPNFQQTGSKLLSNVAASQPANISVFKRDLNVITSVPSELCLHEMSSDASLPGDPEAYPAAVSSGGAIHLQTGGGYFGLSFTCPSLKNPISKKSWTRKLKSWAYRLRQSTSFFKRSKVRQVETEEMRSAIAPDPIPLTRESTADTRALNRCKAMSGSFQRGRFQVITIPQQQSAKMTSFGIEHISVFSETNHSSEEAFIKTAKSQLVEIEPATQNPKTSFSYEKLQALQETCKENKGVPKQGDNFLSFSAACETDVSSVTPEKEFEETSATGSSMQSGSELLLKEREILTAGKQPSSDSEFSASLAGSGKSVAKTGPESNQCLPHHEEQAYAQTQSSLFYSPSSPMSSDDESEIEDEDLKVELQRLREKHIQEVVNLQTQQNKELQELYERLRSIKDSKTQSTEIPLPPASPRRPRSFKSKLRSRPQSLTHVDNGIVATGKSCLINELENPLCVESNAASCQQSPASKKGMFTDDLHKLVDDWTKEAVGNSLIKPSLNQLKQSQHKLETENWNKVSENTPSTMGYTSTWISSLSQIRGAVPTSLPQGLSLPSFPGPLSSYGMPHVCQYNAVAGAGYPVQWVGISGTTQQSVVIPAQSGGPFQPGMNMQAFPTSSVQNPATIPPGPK
measured attribute: residual activity (%)
Provide only the numeric value, understood in %.

Example entries and their recorded answers appear below.
Ask | Quick one: give measured residual activity for "C#Cc1cccc(Nc2ncnc3cc(OCCOC)c(OCCOC)cc23)c1"
Reply | 101

Ask | Determine from records and report residual activity for "CC(C)n1cnc2c(Nc3cccc(Cl)c3)nc(NCCO)nc21"
Reply | 77.7

Ask | // fetch residual activity given entry "Cc1ccc(NC(=O)c2ccc(CN3CCN(C)CC3)cc2)cc1Nc1nc(-c2cccnc2)cs1"
Reply | 99.9

---
Ask | Let me know recorded residual activity for "COc1ccc(-c2cnc3c(-c4ccsc4)cnn3c2)cc1" , thanks.
Reply | 92.7

Ask | Determine from records and report residual activity for "COc1cc2nccc(Oc3ccc(NC(=S)NC(=O)c4ccccc4C)cc3)c2cc1OC"
Reply | 101

====

biological target: UniProtKB Q96GD4; assay: radiometric filter-binding kinase assay, Kinase HotSpot; conditions: compound 0.5 µM; ATP 10 µM
measured attribute: residual activity (%)
Dear colleague, please return just the value in %, with no unit written.

Ask | Note residual activity for the compound shown: "Nc1n[nH]c2nnc(-c3c(-c4ccccc4)nn4ccccc34)cc12"
Reply | 96.8

Ask | Using the record for "O=c1cc(N2CCNCC2)oc2c(-c3ccccc3)cccc12" , state its measured residual activity.
Reply | 97.8

Ask | Given "CC(C)n1cnc2c(Nc3cccc(Cl)c3)nc(NCCO)nc21" , respond with its residual activity.
Reply | 106

Ask | Give the reported value of residual activity for this record: "O=C1Cc2c([nH]c3ccc([N+](=O)[O-])cc23)-c2ccccc2N1"
Reply | 85.9

Ask | Give recorded residual activity. "Cc1cc(Nc2cc(N3CCN(C)CC3)nc(Sc3ccc(NC(=O)C4CC4)cc3)n2)[nH]n1"
Reply | 4.89

Next:
Ask | Read the entry "COc1cc2nccc(Oc3ccc(NC(=S)NC(=O)c4ccccc4C)cc3)c2cc1OC" and write its reported residual activity.
Reply | 4.31

Ask | Annotate the compound "Clc1ccc(Nc2nnc(Cc3ccncc3)c3ccccc23)cc1" with its measured residual activity.
Reply | 90

Ask | Using known records, supply residual activity for CSc1nc(-c2ccc(F)cc2)c(-c2ccnc(NC(C)c3ccccc3)c2)[nH]1 (centres undefined)
Reply | 98.4

Ask | State its residual activity: "Cc1ccc(NC(=O)c2ccc(CN3CCN(C)CC3)cc2)cc1Nc1nc(-c2cccnc2)cs1"
Reply | 99.5

====

# key: entry, value: residual activity
target: NEK1 (human); assay: radiometric filter-binding kinase assay, Kinase HotSpot; conditions: compound 0.5 µM; ATP 10 µM
Record the value in %, omitting the unit from your answer.

Reference set, count: 3
Ask | Supply reported residual activity belonging to this compound: "CCN1/C(=C/C(C)=O)Sc2ccc(OC)cc21"
Reply | 90.1

Ask | Specify residual activity for "CCCNC(=O)Nc1ccc(Oc2ncnc3cc(OC)c(OC)cc23)cc1Cl" and stop.
Reply | 91.8

Ask | Output measured residual activity for this item: "COc1cc2ncnc(Nc3ccc(F)c(Cl)c3)c2cc1OCCCN1CCOCC1"
Reply | 90.4

Now for a further compound.
Ask | Supply measured residual activity of "COc1ccc(-c2cnc3c(-c4ccsc4)cnn3c2)cc1" in your reply.
Reply | 89.4

====

target: DYRK2 (human) (UniProt Q92630); experiment: radiometric filter-binding kinase assay, Kinase HotSpot; conditions: compound 0.5 µM; ATP 10 µM
Sequence (Q92630 whole entry, looked up): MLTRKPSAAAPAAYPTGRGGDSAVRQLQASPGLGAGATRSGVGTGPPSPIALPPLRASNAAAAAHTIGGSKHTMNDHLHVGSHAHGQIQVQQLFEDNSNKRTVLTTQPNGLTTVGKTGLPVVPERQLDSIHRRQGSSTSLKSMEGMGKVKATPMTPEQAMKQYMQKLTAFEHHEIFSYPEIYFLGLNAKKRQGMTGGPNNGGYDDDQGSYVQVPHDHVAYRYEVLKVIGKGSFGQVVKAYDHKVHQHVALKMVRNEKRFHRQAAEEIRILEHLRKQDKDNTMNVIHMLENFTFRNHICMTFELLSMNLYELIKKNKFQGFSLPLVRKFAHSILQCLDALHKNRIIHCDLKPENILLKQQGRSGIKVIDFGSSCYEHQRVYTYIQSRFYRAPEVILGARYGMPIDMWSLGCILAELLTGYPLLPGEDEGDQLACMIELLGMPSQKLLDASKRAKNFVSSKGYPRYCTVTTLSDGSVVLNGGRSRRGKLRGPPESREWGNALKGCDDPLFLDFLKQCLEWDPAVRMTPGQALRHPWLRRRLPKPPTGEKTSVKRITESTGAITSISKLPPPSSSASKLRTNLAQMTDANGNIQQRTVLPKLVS
measured attribute: residual activity (%)
Write the value in % as a bare number.

Consider the following illustrative entries.
Ask | Provide measured residual activity value, entry: "CCN1/C(=C/C(C)=O)Sc2ccc(OC)cc21"
Reply | 19.5

Ask | For the compound "O=C1Cc2c([nH]c3ccc([N+](=O)[O-])cc23)-c2ccccc2N1" , give its measured residual activity value.
Reply | 72

Ask | Read off the recorded residual activity for O=C(NC(NC(=S)Nc1ccc(F)c([N+](=O)[O-])c1)C(Cl)(Cl)Cl)C(c1ccccc1)c1ccccc1 (stereo not given)
Reply | 102

Ask | State its residual activity: "COc1ccc(-c2cnc3c(-c4ccsc4)cnn3c2)cc1"
Reply | 71.1

Turning to the following compound.
Ask | Answer with the recorded residual activity for the compound listed here: "CCCNC(=O)Nc1ccc(Oc2ncnc3cc(OC)c(OC)cc23)cc1Cl"
Reply | 108

====

target: JAK2 JH1 JH2 (human) (UniProt O60674); assay: radiometric filter-binding kinase assay, Kinase HotSpot; conditions: compound 0.5 µM; ATP 10 µM
Sequence (O60674 whole entry, looked up): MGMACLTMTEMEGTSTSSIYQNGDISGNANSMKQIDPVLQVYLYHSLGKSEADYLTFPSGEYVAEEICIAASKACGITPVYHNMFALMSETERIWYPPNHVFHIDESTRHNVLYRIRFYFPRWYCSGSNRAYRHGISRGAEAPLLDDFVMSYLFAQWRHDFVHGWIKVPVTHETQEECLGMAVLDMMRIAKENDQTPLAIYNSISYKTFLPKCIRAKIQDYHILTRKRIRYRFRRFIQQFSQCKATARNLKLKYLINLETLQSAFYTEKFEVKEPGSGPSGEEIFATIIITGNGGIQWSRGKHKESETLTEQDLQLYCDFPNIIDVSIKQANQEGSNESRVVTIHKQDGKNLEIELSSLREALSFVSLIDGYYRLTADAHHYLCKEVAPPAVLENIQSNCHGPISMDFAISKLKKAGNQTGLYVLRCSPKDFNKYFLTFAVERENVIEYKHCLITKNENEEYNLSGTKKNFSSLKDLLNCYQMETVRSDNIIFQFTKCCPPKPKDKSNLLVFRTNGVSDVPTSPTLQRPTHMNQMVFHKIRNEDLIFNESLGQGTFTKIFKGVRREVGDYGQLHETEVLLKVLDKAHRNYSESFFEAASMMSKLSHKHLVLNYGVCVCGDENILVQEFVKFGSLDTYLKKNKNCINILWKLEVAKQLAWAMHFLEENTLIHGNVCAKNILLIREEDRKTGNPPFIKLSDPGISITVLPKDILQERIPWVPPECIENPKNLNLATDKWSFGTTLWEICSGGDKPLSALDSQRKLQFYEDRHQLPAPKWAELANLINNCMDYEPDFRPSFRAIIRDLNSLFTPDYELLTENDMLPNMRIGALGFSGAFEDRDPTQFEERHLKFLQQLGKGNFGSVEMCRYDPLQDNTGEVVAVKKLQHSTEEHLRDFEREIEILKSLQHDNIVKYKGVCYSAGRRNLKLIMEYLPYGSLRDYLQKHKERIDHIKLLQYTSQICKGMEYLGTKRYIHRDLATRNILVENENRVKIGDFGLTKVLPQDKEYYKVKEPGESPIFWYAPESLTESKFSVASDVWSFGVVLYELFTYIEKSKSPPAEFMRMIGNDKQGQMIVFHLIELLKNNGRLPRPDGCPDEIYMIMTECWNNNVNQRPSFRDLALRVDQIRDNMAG
measured attribute: residual activity (%)
Write down the numeric answer in % and omit the unit.

Ask | Indicate its recorded residual activity; the compound in question is "Nc1n[nH]c2nnc(-c3c(-c4ccccc4)nn4ccccc34)cc12"
Reply | 97.1

Ask | Quick one: give measured residual activity for "Oc1ccc(-c2nc(-c3ccc(F)cc3)c(-c3ccncc3)[nH]2)cc1"
Reply | 96.2

Ask | Let me know recorded residual activity for CS(=O)c1ccc(-c2nc(-c3ccc(F)cc3)c(-c3ccncc3)[nH]2)cc1 (stereo not given) , thanks.
Reply | 99.5

Ask | // fetch residual activity given entry "Cc1cc2ncc(-c3ccccc3)nc2cc1C"
Reply | 97.3

Ask | Assign residual activity to the following record: "O=C(Nc1ccc(Cl)cc1)c1ccccc1NCc1ccncc1"
Reply | 96.5

***
Ask | Supply reported residual activity belonging to this compound: "COc1cc2ncnc(Nc3ccc(F)c(Cl)c3)c2cc1OCCCN1CCOCC1"
Reply | 99.8

Ask | # return recorded residual activity for input "O=c1cc(-c2cccc3c2Sc2ccccc2S3)oc(N2CCOCC2)c1"
Reply | 105

Ask | Please give the documented residual activity of "Nc1nc(Nc2ccc(S(N)(=O)=O)cc2)nn1C(=S)Nc1c(F)cccc1F"
Reply | 3.16

Ask | Please give the documented residual activity of "CC(C)(C)c1nc2c3ccc(F)cc3c3c(=O)[nH]ccc3c2[nH]1"
Reply | 1.37

Ask | Provide one value: measured residual activity of "Clc1ccc(Nc2nnc(Cc3ccncc3)c3ccccc23)cc1"
Reply | 106

====

biological target: UniProt:O14965; assay: radiometric filter-binding kinase assay, Kinase HotSpot; conditions: compound 0.5 µM; ATP 10 µM
Sequence (O14965 whole entry, looked up): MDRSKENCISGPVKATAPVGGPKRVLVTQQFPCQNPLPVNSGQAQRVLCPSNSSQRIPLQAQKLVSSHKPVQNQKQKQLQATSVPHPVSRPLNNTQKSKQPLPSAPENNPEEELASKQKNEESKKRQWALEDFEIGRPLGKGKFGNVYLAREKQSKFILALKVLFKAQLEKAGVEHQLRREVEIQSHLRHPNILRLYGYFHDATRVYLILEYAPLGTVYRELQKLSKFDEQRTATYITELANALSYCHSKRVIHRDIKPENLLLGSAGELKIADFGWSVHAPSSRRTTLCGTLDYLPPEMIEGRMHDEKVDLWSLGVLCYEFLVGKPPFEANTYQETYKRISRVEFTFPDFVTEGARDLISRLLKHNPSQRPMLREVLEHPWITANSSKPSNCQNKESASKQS
The molecules listed here are annotated with their residual activity.
Report the figure in % without appending any unit label.

Ask | Specify measured residual activity for "Nc1nc(Nc2ccc(S(N)(=O)=O)cc2)nn1C(=S)Nc1c(F)cccc1F" .
Reply | 1.44

Ask | Give a short answer stating reported residual activity for "O=C1Cc2c([nH]c3ccc([N+](=O)[O-])cc23)-c2ccccc2N1" .
Reply | 96

Ask | Quickly give me recorded residual activity for CSc1nc(-c2ccc(F)cc2)c(-c2ccnc(NC(C)c3ccccc3)c2)[nH]1 (centres undefined)
Reply | 99.9

Here is the next item to consider.
Ask | Answer with the recorded residual activity of "O=C1Nc2ccccc2/C1=C\c1c(Cl)[nH]c2ccccc12" only.
Reply | 108

====

biological target: CDK7 CCNH MNAT1 (human) (UniProt P50613+P51948+P51946); assay: radiometric filter-binding kinase assay, Kinase HotSpot; details: compound 0.5 µM; ATP 10 µM
Sequence (P50613 whole entry, looked up): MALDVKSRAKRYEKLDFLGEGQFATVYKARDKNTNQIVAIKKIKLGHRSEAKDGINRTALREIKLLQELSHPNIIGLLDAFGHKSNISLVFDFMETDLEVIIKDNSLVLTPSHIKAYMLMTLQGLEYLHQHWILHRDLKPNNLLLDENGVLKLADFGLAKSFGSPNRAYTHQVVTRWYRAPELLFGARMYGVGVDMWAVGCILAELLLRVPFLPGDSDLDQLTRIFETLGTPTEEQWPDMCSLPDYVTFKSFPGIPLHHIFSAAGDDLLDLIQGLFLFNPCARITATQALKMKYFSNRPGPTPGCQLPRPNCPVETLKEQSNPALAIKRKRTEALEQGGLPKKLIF
Sequence (P51946 whole entry, looked up): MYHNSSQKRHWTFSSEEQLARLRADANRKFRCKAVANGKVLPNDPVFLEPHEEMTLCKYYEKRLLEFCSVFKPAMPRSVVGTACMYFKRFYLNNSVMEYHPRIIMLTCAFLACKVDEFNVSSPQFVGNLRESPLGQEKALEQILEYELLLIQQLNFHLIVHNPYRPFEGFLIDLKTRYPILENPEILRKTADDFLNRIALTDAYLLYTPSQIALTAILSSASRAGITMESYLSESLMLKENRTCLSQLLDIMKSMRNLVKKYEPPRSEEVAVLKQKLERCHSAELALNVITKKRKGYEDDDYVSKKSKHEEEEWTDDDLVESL
Sequence (P51948 whole entry, looked up): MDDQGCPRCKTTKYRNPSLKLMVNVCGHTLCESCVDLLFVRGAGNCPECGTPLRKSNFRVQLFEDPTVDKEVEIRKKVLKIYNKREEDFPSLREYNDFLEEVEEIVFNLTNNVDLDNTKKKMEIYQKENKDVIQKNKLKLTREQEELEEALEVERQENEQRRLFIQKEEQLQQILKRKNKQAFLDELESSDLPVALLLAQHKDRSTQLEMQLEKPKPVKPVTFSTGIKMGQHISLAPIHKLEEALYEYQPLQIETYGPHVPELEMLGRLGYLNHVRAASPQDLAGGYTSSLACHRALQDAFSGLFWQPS
measured attribute: residual activity (%)
Quick note: give the figure in %, leave out the unit.

Ask | Recall and state the measured residual activity for CSc1nc(-c2ccc(F)cc2)c(-c2ccnc(NC(C)c3ccccc3)c2)[nH]1 (stereo not given) .
Reply | 97.2

Ask | Give recorded residual activity. "COc1cc2nccc(Oc3ccc(NC(=S)NC(=O)c4ccccc4C)cc3)c2cc1OC"
Reply | 97.7

Ask | Specify residual activity for "COc1ccc(-c2cnc3c(-c4ccsc4)cnn3c2)cc1" and stop.
Reply | 100

Ask | Give residual activity for "COc1cc2ncnc(Nc3ccc(F)c(Cl)c3)c2cc1OCCCN1CCOCC1"
Reply | 105

***
Ask | Quick one: give measured residual activity for "CCCNC(=O)Nc1ccc(Oc2ncnc3cc(OC)c(OC)cc23)cc1Cl"
Reply | 119

====

Parameter residual activity: see the listing below.
target: MAP3K9 (human); test: radiometric filter-binding kinase assay, Kinase HotSpot; details: compound 0.5 µM; ATP 10 µM
Write it as a number; the unit % goes unstated.

Example results:
Ask | Enter residual activity (test system MAP3K9 (human)) for "CCN1/C(=C/C(C)=O)Sc2ccc(OC)cc21"
Reply | 98.8

Ask | Report residual activity on MAP3K9 (human) for this entry: CS(=O)c1ccc(-c2nc(-c3ccc(F)cc3)c(-c3ccncc3)[nH]2)cc1 (stereo unspecified)
Reply | 95

Ask | Provide measured residual activity on MAP3K9 (human) for "COc1cc2nccc(Oc3ccc(NC(=S)NC(=O)c4ccccc4C)cc3)c2cc1OC" please.
Reply | 99.3

Ask | Param request: residual activity | system MAP3K9 (human) | item "CC(C)(C)c1nc2c3ccc(F)cc3c3c(=O)[nH]ccc3c2[nH]1"
Reply | 20.4

Others:
Ask | GET residual activity | system: MAP3K9 (human) | item: "Clc1ccc(Nc2nnc(Cc3ccncc3)c3ccccc23)cc1"
Reply | 113
